Values compiled from patent US11414424B2.

# Test system: bovine cardiac myofibrils
# measurement-notes: Myofibril assay: PK/LDH-coupled steady-state ATPase activity of skinned bovine cardiac myofibrils
# Format: biochemical
# condition-parameters: Ca2+ activating to 75% of maximal rate
Kindly state CDMF75 IC15 for each of the entries shown.
Give bare numbers, in µM.

Kindly give each listed record's CDMF75 IC15.
1. O=C1CN(c2ccc(Cl)cc2F)C(=O)C2(CC2)N1Cc1ccc(C(F)(F)F)cc1 [Compound 271]
2. COC(=O)N1CC2(C1)C(=O)N(c1ccc(C#N)cc1)CC(=O)N2Cc1ccc(C(F)(F)F)cc1 [Compound 188]
3. CNC(=O)c1cccc(N2CC3(C2)C(=O)N(c2ccc(C#N)cc2F)CC(=O)N3Cc2ccc(C(F)(F)F)cc2)c1NC [Compound 547]

[0.6, 2.6, 0.4]

* * *

# Tested on: bovine cardiac myofibrils
# measurement-notes: Myofibril assay: PK/LDH-coupled steady-state ATPase activity of skinned bovine cardiac myofibrils
# Type: biochemical
# condition-parameters: Ca2+ activating to 75% of maximal rate
parameter-measured: CDMF75 IC15 (nM)
Give bare numbers, in nM.

Example results:
| smiles-text | parameter-measured | recorded-value |
| --- | --- | --- |
| Cc1cc(Cl)cnc1N1CC(=O)N(Cc2ccc(F)cc2)C2(CN(c3ccccn3)C2)C1=O | CDMF75 IC15 | 400 |
| N#Cc1ccc(N2CC(=O)N(Cc3ccc(C(F)(F)F)cc3)[C@@H](CO)C2=O)c(F)c1 | CDMF75 IC15 | 3200 |
| CNc1c(C(=O)OC)cccc1N1CC2(C1)C(=O)N(c1ccc(C#N)cc1F)CC(=O)N2Cc1ccc(C(F)(F)F)cc1 | CDMF75 IC15 | 1000 |

Field: next molecule
Provide only the value of recorded CDMF75 IC15 for O=C1CN(c2ncc(Cl)cc2F)C(=O)C2(CC2)N1Cc1ccc(Cl)cc1
900

* * *

# System: bovine cardiac myofibrils
# measurement-notes: Myofibril assay: PK/LDH-coupled steady-state ATPase activity of skinned bovine cardiac myofibrils
# Format: biochemical
# condition-parameters: Ca2+ activating to 75% of maximal rate
Decision: CDMF75 IC15 beneath 4 µM gives T; CDMF75 IC15 meeting or exceeding 4 µM gives F.

Solved entries:
| compound | target | category-label |
| --- | --- | --- |
| C[C@@H]1C(=O)N(c2ccc(Cl)cc2F)CC(=O)N1Cc1ccc(C(F)(F)F)cc1 | bovine cardiac myofibrils | F |
| O=C1C(C2COC2)N(Cc2ccc(C(F)(F)F)cc2)C(=O)CN1c1ccc(Cl)c(F)c1 (centres unmarked) | bovine cardiac myofibrils | T |
| CC(C)N1CC(=O)N(Cc2ccc(Cl)cc2)C2(CN(c3ccc(Cl)cc3)C2)C1=O | bovine cardiac myofibrils | T |
| CC(C)N1CC(=O)N(Cc2ccc(Cl)cc2)C2(CCN(c3cnccn3)C2)C1=O (centres unmarked) | bovine cardiac myofibrils | F |
| O=C1C(C2COC2)N(Cc2ccc(F)cc2)C(=O)CN1c1ncc(Cl)cc1F (centres unmarked) | bovine cardiac myofibrils | T |

Please let me know if O=C1CN(c2ccc(Cl)cc2F)C(=O)[C@]2(C[C@@H](O)C2)N1Cc1ccc(C(F)(F)F)cc1 (single isomer, unassigned) [Compound 483B] shows CDMF75 IC15 below 4 µM.
T

Consider the compound CN(C)C(=O)N1CC2(C1)C(=O)N(c1ccc(C#N)c(F)c1)CC(=O)N2Cc1ccc(C(F)(F)F)cc1 . Is its CDMF75 IC15 strictly less than 4 µM?
F

Is it true that CDMF75 IC15 reported for Cc1cc(N2CCC3(C2=O)C(=O)N(C(C)C)CC(=O)N3Cc2ccc(Cl)cc2)ccn1 (centres unmarked) is less than 4 µM?
F

* * *

# Test system: bovine cardiac myofibrils
# measurement-notes: Myofibril assay: PK/LDH-coupled steady-state ATPase activity of skinned bovine cardiac myofibrils
# Assay type: biochemical
# condition-parameters: Ca2+ activating to 75% of maximal rate
For each entry below, report its CDMF75 IC15 value.
Answers are plain numbers, in nM.

Examples with their reported CDMF75 IC15 follow.
| compound | CDMF75 IC15 / nM |
| --- | --- |
| O=C1[C@H](C2CC2)N(Cc2ccc(C(F)(F)F)cc2)C(=O)CN1c1ncc(Cl)cc1F | 1000 |
| CNC(=O)N1CC2(C1)C(=O)N(C1CCCC1)CC(=O)N2Cc1ccc(C(F)(F)F)cc1 | 9500 |

Respectfully, I request CDMF75 IC15 for each entry included below.
1. Cc1cc(Cl)cnc1N1CC(=O)N(Cc2ccc(Cl)cc2)C2(CN(c3ccc(F)cn3)C2)C1=O
2. COc1cnc(N2CC(=O)N(Cc3ccc(C)c(F)c3)C(C3COC3)C2=O)c(F)c1 (stereo not shown)
3. CS(=O)(=O)CCC1C(=O)N(c2ncc(Cl)cc2F)CC(=O)N1Cc1ccc(C(F)(F)F)cc1 (stereo not shown)
4. O=CN1CC2(C1)CC1(C2)C(=O)N(c2ncc(Cl)cc2F)CC(=O)N1Cc1ccc(F)cc1
5. CNC(=O)N1CC2(C1)C(=O)N(c1ccc(OC)c(F)c1)CC(=O)N2Cc1ccc(C(F)(F)F)cc1

[500, 16300, 13600, 1370, 2900]

* * *

Exercise: for every item that follows, state its recorded CDMF75 IC15.
# Tested on: bovine cardiac myofibrils
# measurement-notes: Myofibril assay: PK/LDH-coupled steady-state ATPase activity of skinned bovine cardiac myofibrils
# Format: biochemical
# condition-parameters: Ca2+ activating to 75% of maximal rate
Answers are plain numbers, in µM.

Consider the following illustrative entries.
| molecule | measurement-units | CDMF75 IC15 |
| --- | --- | --- |
| N#Cc1ccc(N2CC(=O)N(Cc3ccc(C(F)(F)F)cc3)C3(CN(C=O)C3)C2=O)cc1 | µM | 4.0 |
| CC(=O)N1CC2(C1)C(=O)N(c1ccc(C#N)cc1)CC(=O)N2Cc1ccc(C(F)(F)F)cc1 | µM | 15.8 |
| CNC(=O)c1ccc(N2CC3(C2)C(=O)N(c2ccc(C#N)cc2F)CC(=O)N3Cc2ccc(C(F)(F)F)cc2)cc1NC | µM | 0.2 |

Report CDMF75 IC15 for every entry below.
1. N#Cc1ccc(N2CC(=O)N(Cc3ccc(Cl)cc3)[C@]3(C[C@H](C(=O)N4CCC(O)CC4)C3)C2=O)c(F)c1 (single isomer, unassigned) [Compound 492B]
2. CNC(=O)N1CC2(C1)C(=O)N(Cc1ccc(C(F)(F)F)cc1)CC(=O)N2Cc1ccc(C(F)(F)F)cc1
3. CNC(=O)N1CC2(C1)C(=O)N(c1ncc(Cl)cc1F)CC(=O)N2Cc1ccc(C(F)(F)F)cc1

1: 0.4; 2: 12.2; 3: 0.5

Please go through the list and note CDMF75 IC15 for each molecule.
1. O=C1[C@H](C2CCC2)N(Cc2ccc(C(F)(F)F)cc2)C(=O)CN1c1ncc(Cl)cc1F
2. CNC(=O)N1CC2(C1)C(=O)N(c1ccc(OC)nc1)CC(=O)N2Cc1ccc(C(F)(F)F)cc1
3. CC(C)N1CC(=O)N(Cc2ccc(C#N)cc2)C(c2ccc(Cl)cc2)C1=O (stereo not drawn)
4. O=C1CN(c2ncc(Cl)cc2F)C(=O)C2(CC(F)C2)N1Cc1ccc(C(F)(F)F)cc1 (stereo not drawn)

[0.9, 19.8, 36.7, 0.3]

Hi, could you look up CDMF75 IC15 for each item in my list?
1. CNC(=O)N1CCC2(C1)C(=O)N(c1ccc(C#N)nc1)CC(=O)N2Cc1ccc(C(F)(F)F)cc1 (stereo not drawn)
2. O=C1C(C2COC2)N(Cc2ccc(F)c(Cl)c2)C(=O)CN1c1ncc(Cl)cc1F (stereo not drawn)
3. O=C1CN(C2CCCC2)C(=O)C2(CCN(c3ccccn3)C2)N1Cc1ccc(Cl)cc1 (stereo not drawn)
4. CNC(=O)N1CC2(C1)C(=O)N(C(C)C)CC(=O)N2C(C)c1ccc(C(F)(F)F)cc1 (stereo not drawn)
5. CC(C)N1CC(=O)N(Cc2ccc(C(F)(F)F)cn2)C(c2ccc(Cl)cc2)C1=O (stereo not drawn)

1. 25.5
2. 1.4
3. 1.3
4. 14.8
5. 28.9

Parameters: items (list). Returns: CDMF75 IC15 for each item.
1. CC(C)N1CC(=O)N(Cc2ccccc2C#N)C(c2ccc(Cl)cc2)C1=O (stereo not drawn)
2. CC(C)N1CC(=O)N(Cc2ccc(Cl)cc2)C2(CN(c3cnc(Cl)cn3)C2)C1=O
3. CC(C)N1CC(=O)N(Cc2ccc(Cl)cc2)C2(CC(=O)N(c3ccccc3)C2)C1=O (stereo not drawn)
4. CNC(=O)N1CC2(C1)C(=O)N(c1ccc(-c3noc(C(F)F)n3)cc1)CC(=O)N2Cc1ccc(C(F)(F)F)cc1
5. CC(C)N1CC(=O)N(Cc2ccc(C(F)(F)F)cc2)C2(CCN(c3cccnn3)C2)C1=O (stereo not drawn)
6. CC(C)N1CC(=O)N(Cc2ccc(Cl)cc2)C2(CN(c3cncnc3)C2)C1=O

[18.6, 18.3, 30.9, 1.4, 5.7, 8.8]
